# system-under-test: human AXL (473-end) (Homo sapiens, UniProt P30530)
# Construct: human AXL (473-end); purchased SignalChem, Canada
# Sequence (P30530 473-894 limits assumed): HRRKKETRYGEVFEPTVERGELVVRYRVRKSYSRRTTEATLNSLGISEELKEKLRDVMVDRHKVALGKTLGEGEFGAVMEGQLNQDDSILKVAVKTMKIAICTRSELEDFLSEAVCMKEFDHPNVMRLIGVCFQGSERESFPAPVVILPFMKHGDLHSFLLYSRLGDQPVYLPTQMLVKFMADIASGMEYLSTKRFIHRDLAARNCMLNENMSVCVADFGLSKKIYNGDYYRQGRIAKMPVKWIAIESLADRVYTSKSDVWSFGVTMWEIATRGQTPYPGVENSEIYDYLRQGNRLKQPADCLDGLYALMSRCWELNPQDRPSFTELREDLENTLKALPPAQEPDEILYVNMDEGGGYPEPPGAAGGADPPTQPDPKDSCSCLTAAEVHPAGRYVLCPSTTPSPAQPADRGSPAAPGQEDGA
# test: HTRF kinase activity biochemical assay, AXL
# particulars: in vitro
metric-name: IC50

Request: Request the reported IC50 associated with `Cn1cc(-c2cnc(N)c(C(=O)N[C@H]3CCC[C@@H]3OCc3ccc(-c4ccc5c(c4)C(C)(C)C[C@@H]5N4CCN(CCO)CC4)cc3)c2)cn1`
Result: < 10 nM

Request: What about Cn1cc(-c2cnc(N)c(C(=O)N[C@H]3CCC[C@@H]3OCc3ccc(-c4ccc5c(c4)C(C)(C)CC5N4CCN(CCO)CC4)cc3)c2)cn1 (some centres unmarked) ?
Result: < 10 nM
